Conditions: 335.66 K; 101.33 kPa; Liquid; Vibrating tube method
readoutType: mass density (kg/m3)

- compound: "CC(C)C(=O)[O-].C[NH2+]CCO [2-hydroxy-N-methylethanaminium isobutyrate]"
  recordedNumber: 1018.56
- compound: "CC(=O)[O-].C[NH2+]CCO [N-methyl-2-hydroxyethylammonium acetate]"
  recordedNumber: 1077.76
- compound: "CCCCC(=O)[O-].C[NH2+]CCO [2-hydroxy-N-methylethanaminium pentanoate]"
  recordedNumber: 990.472
- compound: "CCCC(=O)[O-].C[NH2+]CCO [N-methyl-2-hydroxyethylammonium butanoate]"
  recordedNumber: 1013.47
- compound: "C[NH2+]CCO.O=C[O-] [2-hydroxy-N-methylethanaminium formate]"
  recordedNumber: 1107.67
- compound: "CCC(=O)[O-].C[NH2+]CCO [2-hydroxy-N-methylethanaminium propionate]"
  recordedNumber: 1046.3

---

Details: 285.4 K; 101.33 kPa; Liquid; Pulse-echo method
readoutType: speed of sound (m/s)

- molecule: "CCC(=O)[O-].C[NH2+]CCO [2-hydroxy-N-methylethanaminium propionate]"
  uom: "m/s"
  speed of sound: 1728.5
- molecule: "CC(C)C(=O)[O-].C[NH2+]CCO [2-hydroxy-N-methylethanaminium isobutyrate]"
  uom: "m/s"
  speed of sound: 1647.9
- molecule: "C[NH2+]CCO.O=C[O-] [2-hydroxy-N-methylethanaminium formate]"
  uom: "m/s"
  speed of sound: 1840.3
- molecule: "CCCCC(=O)[O-].C[NH2+]CCO [2-hydroxy-N-methylethanaminium pentanoate]"
  uom: "m/s"
  speed of sound: 1590.5
- molecule: "CCCC(=O)[O-].C[NH2+]CCO [N-methyl-2-hydroxyethylammonium butanoate]"
  uom: "m/s"
  speed of sound: 1656.8

---

Details: 302.15 K; 101.33 kPa; Liquid; Vibrating tube method
readoutType: mass density (kg/m3)

- molecule: "CCC(=O)[O-].C[NH2+]CCO [2-hydroxy-N-methylethanaminium propionate]"
  mass density [kg/m3]: 1068.69
- molecule: "CCCC(=O)[O-].C[NH2+]CCO [N-methyl-2-hydroxyethylammonium butanoate]"
  mass density [kg/m3]: 1036.54
- molecule: "CC(C)C(=O)[O-].C[NH2+]CCO [2-hydroxy-N-methylethanaminium isobutyrate]"
  mass density [kg/m3]: 1040.81
- molecule: "C[NH2+]CCO.O=C[O-] [2-hydroxy-N-methylethanaminium formate]"
  mass density [kg/m3]: 1126.02
- molecule: "CCCCC(=O)[O-].C[NH2+]CCO [2-hydroxy-N-methylethanaminium pentanoate]"
  mass density [kg/m3]: 1013.53
- molecule: "CC(=O)[O-].C[NH2+]CCO [N-methyl-2-hydroxyethylammonium acetate]"
  mass density [kg/m3]: 1098.44

---

Settings: 318.41 K; 101.33 kPa; Liquid; Vibrating tube method
readoutType: mass density (kg/m3)

- molecule: "CCCC(=O)[O-].C[NH2+]CCO [N-methyl-2-hydroxyethylammonium butanoate]"
  uom: "kg/m3"
  mass density: 1025.55
- molecule: "CCC(=O)[O-].C[NH2+]CCO [2-hydroxy-N-methylethanaminium propionate]"
  uom: "kg/m3"
  mass density: 1058.01
- molecule: "CC(=O)[O-].C[NH2+]CCO [N-methyl-2-hydroxyethylammonium acetate]"
  uom: "kg/m3"
  mass density: 1088.56
- molecule: "CC(C)C(=O)[O-].C[NH2+]CCO [2-hydroxy-N-methylethanaminium isobutyrate]"
  uom: "kg/m3"
  mass density: 1030.19
- molecule: "CCCCC(=O)[O-].C[NH2+]CCO [2-hydroxy-N-methylethanaminium pentanoate]"
  uom: "kg/m3"
  mass density: 1002.52
- molecule: "C[NH2+]CCO.O=C[O-] [2-hydroxy-N-methylethanaminium formate]"
  uom: "kg/m3"
  mass density: 1116.96
